Entry source: ChEMBL document CHEMBL1201862

# System: HL-60
# assay notes: NCI tumour cell line growth inhibition, 48 h
The source made the active and inactive calls. No stated cut-off is given here; in the data, active = GI50 up to about 1.1 µM and inactive = higher.
I would appreciate it if you answered using one of these outcomes: active, inactive

Consider the following illustrative entries.
{"columns": ["molecule", "answer label"],
 "data": [
  ["OCCCCCNc1c2ccccc2nc2ccccc12", "inactive"],
  ["Nn1c(-c2ccccc2Cl)nc2ccccc2c1=O", "inactive"],
  ["O=[N+]([O-])c1cc2c(c([N+](=O)[O-])c1)NCc1ccccc1O2", "inactive"]
]}

Now consider a different molecule.
Hello, I am checking results. What call was entered for C/C=C/CP(=O)(c1ccccc1)c1ccccc1 ?
inactive
